Would you kindly list AIRE transcriptional activation functional score for each of these variants?
B1: library; numbered along this chain (parent)
chain: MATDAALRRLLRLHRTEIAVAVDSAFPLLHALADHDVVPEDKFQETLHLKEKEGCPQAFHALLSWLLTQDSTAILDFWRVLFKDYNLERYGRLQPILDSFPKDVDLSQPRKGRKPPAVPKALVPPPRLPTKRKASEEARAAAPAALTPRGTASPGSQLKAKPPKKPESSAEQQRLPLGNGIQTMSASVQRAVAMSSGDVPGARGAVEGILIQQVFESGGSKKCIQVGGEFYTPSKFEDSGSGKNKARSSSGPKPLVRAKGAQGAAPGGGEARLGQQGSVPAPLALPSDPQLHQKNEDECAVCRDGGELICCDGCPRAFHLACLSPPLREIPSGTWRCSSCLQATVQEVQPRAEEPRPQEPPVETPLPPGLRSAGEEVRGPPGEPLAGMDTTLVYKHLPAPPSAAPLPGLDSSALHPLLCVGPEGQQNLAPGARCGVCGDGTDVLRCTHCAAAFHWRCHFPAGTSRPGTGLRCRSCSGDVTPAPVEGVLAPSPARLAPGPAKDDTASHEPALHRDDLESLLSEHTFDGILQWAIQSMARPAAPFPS

variants of: B1; assay: AIRE transcriptional activation functional score (insulin promoter-GFP; nonsense median 0, synonymous median 1) (normalised score); higher = higher AIRE activity (more reporter activation); details: with insulin promoter-GFP reporter in HEK293
API doc: respond with a numeric literal and nothing else, no unit.

Given item G267H , the value recorded as its AIRE transcriptional activation functional score is 1.38

Given item P380F , the value recorded as its AIRE transcriptional activation functional score is 0.369

Given item S107F , the value recorded as its AIRE transcriptional activation functional score is 0.789

Given item V301M , the value recorded as its AIRE transcriptional activation functional score is 0.84

Given item R272Y , the value recorded as its AIRE transcriptional activation functional score is 0.677

Given item P360G , the value recorded as its AIRE transcriptional activation functional score is 1.16

Given item Q275T , the value recorded as its AIRE transcriptional activation functional score is 1.11

Given item K83T , the value recorded as its AIRE transcriptional activation functional score is 0.432

Given item V348Y , the value recorded as its AIRE transcriptional activation functional score is 0.929

Given item S107E , the value recorded as its AIRE transcriptional activation functional score is 0.777

Given item P254S , the value recorded as its AIRE transcriptional activation functional score is 0.995

Given item A489Q , the value recorded as its AIRE transcriptional activation functional score is 0.0401

Given item S64H , the value recorded as its AIRE transcriptional activation functional score is 0.583

Given item P400Q , the value recorded as its AIRE transcriptional activation functional score is 1.52

Given item M184S , the value recorded as its AIRE transcriptional activation functional score is 0.488

Given item R336W , the value recorded as its AIRE transcriptional activation functional score is 0.655

Given item K111F , the value recorded as its AIRE transcriptional activation functional score is 0.696

Given item A413I , the value recorded as its AIRE transcriptional activation functional score is 1.34
